// data source = PubChem BioAssay AID248

- System: L1210 leukemia ip in BDF1 mice, survival T/C
- experimental details: NCI In Vivo Anticancer Drug Screen. Data for tumor model L1210 Leukemia (intraperitoneal) in B6D2F1 (BDF1) mice
- condition details: endpoint: mean survival time; dose: 100.0 mg/kg/injection; schedule: Q01DX001 (ip); vehicle: carboxymethylcellulose (CMC); higher = longer survival
Toxic doses and inconclusive results are not listed.
The entries below are paired with their reported T/C.
value kind: T/C

CCOc1ccc(Cl)cc1C1N(Cc2ccc(OC)cc2)CCCN1Cc1ccc(OC)cc1: 98 % of control
Cc1cc2oc(=O)cc(C)c2c(=O)o1: 97 % of control
CC(=O)CC(=O)C(F)(F)F.CC(=O)CC(=O)C(F)(F)F.CC(=O)CC(=O)C(F)(F)F.[Cr]: 109 % of control
CCOP(=O)(NCCc1ccccc1)OCC: 109 % of control
CCOC(=O)Nc1cc(N)c([N+](=O)[O-])c(NC(c2ccccc2)c2ccccc2)n1: 95 % of control
NC(=O)C1(Nc2ccc(-c3ccc(Cl)cc3)cc2)CCCC1: 93 % of control
Nc1cc2c(cc1Cl)-c1ccccc1/C2=N\O: 110 % of control
NNC(=O)CNc1cc(Cl)cc(Cl)c1: 94 % of control
O=P(NO)(c1ccccc1)c1ccccc1: 92 % of control
Cc1ccnc(NS(=O)(=O)c2ccc(N=Nc3c(N)[nH]c(=S)[nH]c3=O)cc2)n1: 97 % of control
NC(=O)C1(Nc2ccc(-c3ccc(I)cc3)cc2)CCCC1: 86 % of control
COc1ccc2c(c1)CCC(=O)O2: 96 % of control
CC(C)(CO)NCC1CCCC(CNC(C)(C)CO)C1 (stereo not given): 101 % of control
CC(CC(C#N)(c1ccccc1)c1ccccc1)OS(C)(=O)=O (stereo not given): 94 % of control
O=C(Nc1ccc(F)cc1)Oc1ccc(OCc2ccccc2)cc1: 95 % of control
COc1ccc2c(c1)CC1(CC2)NCC(=O)NC1=O (stereo not given): 97 % of control
Nc1nc(N)c(N=Nc2ccc(S(=O)(=O)Nc3nccs3)cc2)cc1N=Nc1ccccc1: 94 % of control
O=C1C(Cl)=C(Nc2ccccc2Cl)C(=O)C(Cl)=C1Nc1ccccc1Cl: 101 % of control
CCCC(CCC)(C(N)=O)c1ccc(OC)cc1: 87 % of control
COc1cc(/C=C2\CCNC2=O)ccc1OCc1ccccc1: 105 % of control
O=C(NC(c1ccccc1)C(O)c1ccccc1)c1ccc([N+](=O)[O-])cc1 (stereo not given): 93 % of control
Nc1nc(C(=O)O)cc(=O)[nH]1: 103 % of control
O=[N+]([O-])c1ccccc1C1OCCO1: 93 % of control
CC#CC(O)(C(=O)OC)c1ccccc1 (stereo not given): 94 % of control
Nc1cc(Cl)ccc1Nc1ccccc1: 109 % of control

---

- Test system: L1210 leukemia ip in BDF1 mice, survival T/C
- experimental details: NCI In Vivo Anticancer Drug Screen. Data for tumor model L1210 Leukemia (intraperitoneal) in B6D2F1 (BDF1) mice
- condition details: endpoint: mean survival time; dose: 100.0 mg/kg/injection; schedule: Q01DX009 (ip); vehicle: Klucel (hydroxypropylcellulose) (HPC); higher = longer survival
Inconclusive results and toxic doses are left out.
The entries below are paired with their reported T/C.
value kind: T/C

CCOC(=O)C(C)N (centres undefined): 93 % of control
O=c1ccccn1CC1(c2ccccc2)OCCO1: 98 % of control
Cc1ccc(NC(=O)C(Cl)(Cl)Cl)cc1Cl: 112 % of control
CCP(C)(=S)CC: 101 % of control
COc1cc(N=O)ccc1O: 103 % of control
CC(=O)Nc1ccc2ccc3ccccc3c2c1: 94 % of control
OC1CCCC/C1=C/c1ccccc1 (centres undefined): 101 % of control
O=C(O)C1C2CCC3C(C(=O)O)C3C21 (centres undefined): 100 % of control
NC(=O)Nc1cccc(C(=O)O)c1: 89 % of control
O=[N+]([O-])c1cc([N+](=O)[O-])c(Nn2c3ccccc3c3ccccc32)c([N+](=O)[O-])c1: 94 % of control
S=c1[nH]nc(Nc2ccccc2Cl)s1: 97 % of control
Cc1ccc(N2C=Nc3ccc(C)cc3C2)cc1: 92 % of control
CC(=O)NCCCOc1ccc([N+](=O)[O-])cc1Cl: 102 % of control
C=CS(=O)(=O)c1ccc(N)cc1: 103 % of control

---

The entries below are paired with their reported T/C.
- Tested on: L1210 leukemia ip in BDF1 mice, survival T/C
- experimental details: NCI In Vivo Anticancer Drug Screen. Data for tumor model L1210 Leukemia (intraperitoneal) in B6D2F1 (BDF1) mice
- condition details: endpoint: mean survival time; dose: 300.0 mg/kg/injection; schedule: Q04DX003 (ip); vehicle: Klucel (hydroxypropylcellulose) (HPC); higher = longer survival
Toxic doses and inconclusive results are not listed.
value kind: T/C

Nc1ccccc1S(=O)(=O)F: 96 % of control
Cc1c(F)c(I)c(Br)c(C)c1[N+](=O)[O-]: 93 % of control
Nc1ccc(S(=O)(=O)Nc2ccc(S(=O)(=O)O)c3ccc(S(=O)(=O)O)cc23)cc1: 98 % of control
CCCCCCCc1cc(O)c2c3c(c(=O)oc2c1)CCC(C)C3 (stereo unspecified): 93 % of control
c1ccc(CC2CCCC2)cc1: 106 % of control
COc1c(Br)cc(C(=O)C(C)C)c(O)c1C: 95 % of control

---

- Test system: L1210 leukemia ip in BDF1 mice, survival T/C
- experimental details: NCI In Vivo Anticancer Drug Screen. Data for tumor model L1210 Leukemia (intraperitoneal) in B6D2F1 (BDF1) mice
- condition details: endpoint: mean survival time; dose: 80.0 mg/kg/injection; schedule: Q01DX001 (ip); vehicle: saline; higher = longer survival
- Experimental: The antitumor activity of compounds was measured in mice bearing transplantable tumors. Survival or tumor size were measured and the results are expressed as the measurement made in the treated group (T) divided by the measurement made in the vehicle treated control group (C). The tumor model used in this assay is L1210 Leukemia (intraperitoneal) in B6D2F1 (BDF1) mice
Inconclusive results and toxic doses are left out.
value kind: T/C

CC[N+]1(CC)CCC(OC(=O)C(O)(c2ccccc2)c2ccccc2)C1 (centres undefined): 103 % of control
CC[N+](C)(CC)CCNC(c1ccccc1)C(Cl)(Cl)Cl (centres undefined): 106 % of control
NC(=S)N=Nc1c(O)cc(O)c2[nH]c(=O)ccc12: 108 % of control
Oc1ccc(C2=CSC3=NCCN23)cc1: 104 % of control

---

The entries below are paired with their reported T/C.
- System: L1210 leukemia ip in BDF1 mice, survival T/C
- experimental details: NCI In Vivo Anticancer Drug Screen. Data for tumor model L1210 Leukemia (intraperitoneal) in B6D2F1 (BDF1) mice
- condition details: endpoint: mean survival time; dose: 100.0 mg/kg/injection; schedule: Q01DX001 (ip); vehicle: Klucel (hydroxypropylcellulose) (HPC); higher = longer survival
Toxic doses and inconclusive results are not listed.
value kind: T/C

Cc1cc(=O)oc2cc(OC(=O)Nc3ccccc3)ccc12: 93 % of control
Cc1ccc(S(=O)(=O)C=C(c2ccccc2)c2ccccc2)cc1: 98 % of control
COc1ccc2c(c1)CCC1C2CCC2C(O)CCCC21 (stereo unspecified): 93 % of control
CC1(C)CCO/C(=C\C(=O)N2Cc3cc4ccccc4nc3C2)N1: 88 % of control
O=C(Nc1ccccc1F)Oc1ccc(F)cc1: 97 % of control
O=C1NCN(c2ccccc2)C12CCN(CCCS(=O)(=O)c1ccccc1)CC2: 93 % of control
CCCCCCCC/C=C\CCCCCCCC(=O)OCCCCC: 93 % of control
CC(=O)Nc1ccc(-c2ccccc2)cc1: 99 % of control
CC12C3C(=O)NC45CCCC41C5(c1ccccc1)C32c1ccccc1 (stereo unspecified): 96 % of control
COc1ccc(C(O)c2cnc(C)n2Cc2ccccc2)cc1 (stereo unspecified): 93 % of control
CCCCCCCCCCCSCCSCCSCCCCCCCCCCC: 88 % of control
COc1ccc(C(=S)N(C)c2ccccc2C)cc1: 98 % of control
CSc1ccccc1C1CCCCCC1OS(C)(=O)=O (stereo unspecified): 105 % of control
OCc1ccccc1CN1CCCC1: 94 % of control
COc1ccc(NC(C)=O)cc1: 107 % of control
COc1ccccc1-n1c(O)c(N=Nc2ccc(Br)cc2)c(=O)n(-c2ccccc2OC)c1=S: 103 % of control

---

- Tested on: L1210 leukemia ip in BDF1 mice, survival T/C
- experimental details: NCI In Vivo Anticancer Drug Screen. Data for tumor model L1210 Leukemia (intraperitoneal) in B6D2F1 (BDF1) mice
- condition details: endpoint: mean survival time; dose: 200.0 mg/kg/injection; schedule: Q04DX003 (ip); vehicle: saline with Tween-80; higher = longer survival
Toxic doses and inconclusive results are not listed.
value kind: T/C

Cc1cccc(NCc2ccc(Cl)cc2Cl)c1: 95 % of control
O=C(/C=C/c1ccccc1)NC(=S)Nc1ccc(CCO)cc1: 100 % of control
CCCN(CCC)CCCC#N: 93 % of control
OC1c2ccccc2-c2ccc(N(Cc3ccccc3)Cc3ccccc3)cc21 (stereo not drawn): 87 % of control
CCCCCCCCC(=O)N(C)CCO: 95 % of control
Cc1cc(C)c(C(=O)c2no[n+]([O-])c2C(=O)c2c(C)cc(C)c(Br)c2C)c(C)c1Br: 87 % of control
O=C(O)C(=S)Cc1cc(=O)[nH]c(=S)[nH]1: 97 % of control
CC(=O)Oc1ccc(C=O)cc1: 96 % of control
O=c1ccnc([Se])[nH]1: 111 % of control
O=C1NCCCCN1: 100 % of control
Cc1cc(C)cc(C(C)C)c1: 96 % of control
Cc1ccc(OS(=O)(=O)c2cccc([N+](=O)[O-])c2)cc1: 97 % of control
CN(C)c1ccc(C=C(c2ccc(N)cc2)c2ccc(N)cc2)cc1: 96 % of control
